Ref: paper PMC12374733

procedure.details: Cell viability during in-cell synthesis of cinacalcet
Assay type: cell-based, human
assay.setup: human, SH-SY5Y cells
measure: viability at 3 h, 200 μM

Task item: Which viability at 3 h, 200 μM is reported for this compound? O=CCCc1cccc(C(F)(F)F)c1 [1p, 3-(3-(trifluoromethyl)phenyl)propanal]
Reply: ≥ 85%

###

System: NIH-3T3 cells
procedure.details: Cell viability, colorimetric sulforhodamine B assay
Assay type: cell-based, mouse
assay.setup: Mus musculus, NIH3T3
measure: IC50

Task item: Param readout = IC50; param system = NIH-3T3 cells; param query = `NCCc1ccccc1` ; response: value
Reply: > 7 mM

Task item: Thanks! And CC(N)c1ccc(O)cc1 (centres unmarked) ?
Reply: > 8 mM

###

procedure.details: Cell viability, colorimetric sulforhodamine B assay
Format: cell-based, mouse
assay.setup: mouse, NIH-3T3 cells
measure: viability at 24 h, 1 mM

Task item: Which viability at 24 h, 1 mM is reported for this molecule? CC(N)c1ccc(O)cc1 (stereo not shown)
Reply: ≥ 84%

###

Test system: NIH-3T3 cells
procedure.details: Cell viability, colorimetric sulforhodamine B assay
Format: cell-based, mouse
assay.setup: NIH-3T3 cell viability
measure: IC50

Task item: Param readout = IC50; param system = NIH-3T3 cells; param query = `OCCc1ccccc1` ; response: value
Reply: > 7 mM
